# Test system: SK-MEL-5 melanoma
# Test Details: NCI tumour cell line growth inhibition, 48 h
Here, each record is paired with measured TGI data.
Observed Property: TGI

Molecule: Cc1nc2cc3[nH]c4ccccc4c(=O)c3cc2s1
Measured: > 100 µM
//
Molecule: Cc1cccc(Nc2ncc(-c3ccccc3)o2)c1
Measured: > 25 µM
//
Molecule: CCC(/C(=N/NC(=O)C[N+](C)(C)C)c1ccccc1)C1OC(=O)c2ccccc21 (configuration not stated)
Measured: > 100 µM
//
Molecule: Clc1cc2ns[s+]c2cc1Cl
Measured: > 52 µM
//
Molecule: N#Cc1ccccc1C#C/C=C\C#Cc1ccccn1
Measured: 12.9 µM
//
Molecule: O=S1(=O)CC#CC[C@@H](CO)[C@@H](CO)CC#CC1
Measured: > 100 µM
//
Molecule: Clc1ccc(Nc2nnc(COc3ccccc3)c3ccccc23)cc1
Measured: 4.56 µM
//
Molecule: O=Cc1cc2sc(C=O)cc2s1
Measured: > 100 µM
//
Molecule: O=[N+]([O-])c1cc(-c2ccc([As](=O)(O)O)cc2)ccc1[As](=O)(O)O
Measured: > 100 µM
//
Molecule: Cc1cc2nc3c(C)c4ccccc4c(C)n3c2cc1C
Measured: > 10 µM
//
Molecule: CN1C(=O)c2c(c3c4ccccc4n(C)c3c3c2c2ccccc2n3C)C1=O
Measured: > 100 µM
//
Molecule: Cn1cc(-c2nc(-c3c[nH]c4ccccc34)cs2)c2cccnc21
Measured: 16.1 µM
//
Molecule: CN1CN(c2ccccc2)C2(CCN(C(=O)OC(C)(C)C)CC2)C1=O
Measured: > 100 µM
//
Molecule: [N-]=[N+]=NCCCn1c2c(c3ccccc3c1=O)C(=O)c1cc3c(cc1-2)OCO3
Measured: > 100 µM
//
Molecule: NC(=O)C1CCCN1Cc1ccc2c(c1)OCO2 (configuration not stated)
Measured: > 100 µM
//
Molecule: O=C(/C=C/c1cc2ccccc2[nH]c1=O)c1ccc(O)cc1
Measured: 13.3 µM
//
Molecule: CCN(CC(O)COc1ccc2c(c1)[n+]([O-])nc(N)[n+]2[O-])C(C)=O (configuration not stated)
Measured: > 100 µM
//
Molecule: CCn1c(C)nc([N+](=O)[O-])c1Sc1ncc[nH]1
Measured: > 100 µM
//
Molecule: COC(=O)C1=C(C(=O)OC)SC2(S1)C(C(=O)OC)=C(C(=O)OC)Sc1c2ssc1=O
Measured: 2.59 µM
//
Molecule: CC(C)C(C=O)C(O)(C(F)(F)F)C(F)(F)F (configuration not stated)
Measured: > 100 µM
//
Molecule: CC#CC#C/C=C1/C=CC2(CCCCO2)O1 (configuration not stated)
Measured: > 100 µM
//
Molecule: CCOC1=C2N=C(C(CC)c3ccc(F)cc3)N=C2C(=O)c2ccccc21 (configuration not stated)
Measured: 26.9 µM
//
Molecule: O=C(Nc1n[nH]c2cc(-c3ccc(F)cc3)ccc12)C1CC1
Measured: > 18.1 µM
//
Molecule: COc1ccc(CC2OC3(CCCCC3)CC3CCCCN32)cc1 (configuration not stated)
Measured: > 100 µM
//
Molecule: COC(=O)C12CCC(CC1=O)C2(C)C (configuration not stated)
Measured: > 100 µM
//
Molecule: Cc1cccc(N=Nc2ccc(O)c(CN(C)C)c2)c1
Measured: 27.5 µM
//
Molecule: Nc1nc2c(nnn2C2C=C(CO)C(O)C2O)c(=O)[nH]1 (configuration not stated)
Measured: > 100 µM
//
Molecule: Nc1ccc(Oc2ccc(C34CC5CC(C3)CC(c3ccc(Oc6ccc(N)c(O)c6)cc3)(C5)C4)cc2)cc1O
Measured: 4.37 µM
//
Molecule: Clc1ccc(CCNCCNC2(c3cc4ccccc4s3)CCCCC2)cc1Cl
Measured: 3.12 µM
//
Molecule: CCOC(=O)/C(C(N)=O)=C(/O)c1cnccn1
Measured: > 100 µM
//
Molecule: Cc1cc(S(=O)(=O)Nc2nc3ccccc3s2)c(SCc2ccccc2)cc1Cl
Measured: 25 µM
//
Molecule: COc1cc(/C=C/[N+](=O)[O-])cc(OC)c1
Measured: 4.03 µM
//
Molecule: C#Cc1cccc(NC(=O)C2CCCCN2C(=O)CCl)c1 (configuration not stated)
Measured: 41.2 µM
//
Molecule: C/C(COc1ccccc1)=N\NC(N)=S
Measured: > 100 µM
//
Molecule: C=C1[C@H](O)C[C@@H](C(C)C(O)CC=C(C)C)[C@@H](O)[C@@H]2C(C)=CC[C@@H]12 (some centres not stated)
Measured: > 100 µM
//
Molecule: Cc1ccc(O)c(C(=O)/C=C/c2ccccc2)c1
Measured: > 100 µM
//
Molecule: Cc1ccccc1N=C(c1ccccc1)C1C(=O)c2ccccc2C1=O
Measured: 13.3 µM
//
Molecule: COc1ccc(C2CC(=O)Nc3c2c(C)nn3-c2nc3ccccc3[nH]2)cc1OC (configuration not stated)
Measured: 6.17 µM
//
Molecule: OC[C@@H](O)[C@H](O)[C@H](O)[C@@H](O)C1SCCCS1
Measured: > 100 µM
//
Molecule: c1ccc2c(c1)CCCc1nnc3nc4ccccc4n3c1-2
Measured: > 100 µM
//
Molecule: CSCCC(NOC(=O)Cc1ccccc1)P(=O)(O)c1ccccc1 (configuration not stated)
Measured: > 100 µM
//
Molecule: Nc1ncnc2c1ncn2Cc1ccc(CCl)cc1
Measured: 28.5 µM
